molecular target: WT PETNR (Enterobacter cloacae, UniProt P71278); experiment: Stopped-flow FMN reduction (reductive half-reaction, hydride transfer) of WT PETNR by coenzyme; conditions: 15 °C; 10 mM NADPH or 25 mM NADH; pH 7.0
Sequence (P71278 entry or part of it): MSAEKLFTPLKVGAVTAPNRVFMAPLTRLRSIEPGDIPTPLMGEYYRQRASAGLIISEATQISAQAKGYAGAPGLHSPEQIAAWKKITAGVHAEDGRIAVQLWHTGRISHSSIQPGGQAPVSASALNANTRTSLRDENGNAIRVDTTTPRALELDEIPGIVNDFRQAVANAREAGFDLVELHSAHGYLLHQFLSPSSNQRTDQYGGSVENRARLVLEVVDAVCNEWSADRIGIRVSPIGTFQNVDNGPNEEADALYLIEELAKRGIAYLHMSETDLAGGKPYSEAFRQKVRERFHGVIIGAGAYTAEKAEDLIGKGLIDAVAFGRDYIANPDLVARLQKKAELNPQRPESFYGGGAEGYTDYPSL
Below, each entry is listed with its recorded kobs1.
Only the number, expressed in s⁻¹, is required.

Use the examples below as a reference point.
>  <molecule>
NC(=O)C1=CN([C@@H]2O[C@H](COP(=O)(O)OP(=O)(O)OC[C@H]3O[C@@H](n4cnc5c(N)ncnc54)[C@H](OP(=O)(O)O)[C@@H]3O)[C@@H](O)[C@H]2O)C=CC1

>  <kobs1 / s⁻¹>
20.32

$$$$
>  <molecule>
[2H][C@@H]1C=CN([C@@H]2O[C@H](COP(=O)(O)OP(=O)(O)OC[C@H]3O[C@@H](n4cnc5c(N)ncnc54)[C@H](OP(=O)(O)O)[C@@H]3O)[C@@H](O)[C@H]2O)C=C1C(N)=O [(R)-[4-^2H]-NADPH]

>  <kobs1 / s⁻¹>
2.90

$$$$
>  <molecule>
[2H][C@@H]1C=CN([C@@H]2O[C@H](COP(=O)(O)OP(=O)(O)OC[C@H]3O[C@@H](n4cnc5c(N)ncnc54)[C@H](O)[C@@H]3O)[C@@H](O)[C@H]2O)C=C1C(N)=O [(R)-[4-^2H]-NADH]

>  <kobs1 / s⁻¹>
0.156

$$$$

Now consider a different molecule.
In: Need kobs1 of `NC(=O)C1=CN([C@@H]2O[C@H](COP(=O)(O)OP(=O)(O)OC[C@H]3O[C@@H](n4cnc5c(N)ncnc54)[C@H](O)[C@@H]3O)[C@@H](O)[C@H]2O)C=CC1` , thanks.
Out: 1.17
